Reference source: paper PMC8931498

Test: Plasma pharmacokinetics over 8 h after oral ibogaine in wild-type, Cyp3a-/- and Cyp3aXAV mice
Type: in vivo
Details: female, Cyp3a-/-, mouse, 10 mg/kg

{"compound": "CCC1CC2CC3c4[nH]c5ccc(OC6OC(C(=O)O)C(O)C(O)C6O)cc5c4CCN(C2)C13 (centres unmarked) [Noribogaine glucuronide, noribogaine glucuronide]", "units": "min", "Tmax": 60}
{"compound": "CCC1CC2CC3c4[nH]c5ccc(O)cc5c4CCN(C2)C13 (centres unmarked) [Noribogaine, 12-hydroxyibogamine]", "units": "min", "Tmax": 30}

----------
Below, each entry is listed alongside its reported Tmax.
Experiment: Plasma pharmacokinetics over 2 h after oral ibogaine in wild-type, Oatp1a/1b-/-, Oatp1a/1b-/-;1B1tg and Oatp1a/1b-/-;1B3tg mice
Assay type: in vivo
Conditions: female, Oatp1a/1b-/-, mouse, plasma, po, 10 mg/kg
quantity-measured: Tmax (h)

{"compound": "CCC1CC2CC3c4[nH]c5ccc(O)cc5c4CCN(C2)C13 (centres unmarked) [Noribogaine, 12-hydroxyibogamine]", "recorded-result": 0.5}
{"compound": "CCC1CC2CC3c4[nH]c5ccc(OC6OC(C(=O)O)C(O)C(O)C6O)cc5c4CCN(C2)C13 (centres unmarked) [Noribogaine glucuronide, noribogaine glucuronide]", "recorded-result": 2}
